# TEST_SYSTEM: HLA DRB1 *0901 (Homo sapiens, UniProt P01903+P01911, A100R/A103E/D57H/D86V/F55Y/F60I/F76Y/I96F/K127E/L162R/M171V/P40D/Q125H/Q99R/R33Q/R42F/S133A/S66N/T210M/V115G/W38K/Y107V/Y59G/Y89S)
# EXPERIMENT_DESCRIPTION: IC50nM to purified HLA | DRB1 *0901
Where no end group is shown, it is not given here.
EXPERIMENTAL_ENDPOINT: pIC50
Answers are plain numbers, as −log10 of the molar value.

AAAHFVAAYTLKAEA [SEQ ID NO: 37] : 7.46
AAADFVAANTLHAAA [SEQ ID NO: 44] : 7.09
AAAEFVAANTLHAAA [SEQ ID NO: 49] : 7.06
AAAHFVAAWTLKAEA [SEQ ID NO: 36] : 7.36
AAAEFVAAWTLKAAA [SEQ ID NO: 45] : 7.39

Batch request: pIC50 per item, same order as input.
1. AAAHFVAAFTLKADA [SEQ ID NO: 33]
2. AAAHFVAAYTLKADA [SEQ ID NO: 32]
3. AAAKFVAAWTLKADA [SEQ ID NO: 30]
4. AAAKFVAAWTLKAEA [SEQ ID NO: 35]

[7.52, 7.51, 7.57, 7.39]

Batch request: pIC50 per item, same order as input.
1. AAAHFVAANTLKADA [SEQ ID NO: 34]
2. AAAHFVAAFTLKAEA [SEQ ID NO: 38]
3. AAAHFVAANTLHAAA [SEQ ID NO: 29]
4. AAAEFVAAWTLHAAA [SEQ ID NO: 46]
5. AAAEFVAAYTLHAAA [SEQ ID NO: 47]

1. 7.22
2. 7.34
3. 7.43
4. 7.36
5. 7.55

Batch request: pIC50 per item, same order as input.
1. AAAEFVAAFTLHAAA [SEQ ID NO: 48]
2. AAAHFVAAFTLHAAA [SEQ ID NO: 28]
3. AAADFVAAWTLHAAA [SEQ ID NO: 41]
4. AAADFVAAYTLHAAA [SEQ ID NO: 42]

1. 7.74
2. 7.62
3. 7.40
4. 7.49
